Recorded values, source ChEMBL document CHEMBL2218924.

Biological target: Mitogen-activated protein kinase kinase kinase 7 (Homo sapiens)
Conditions: at 1 µM
value_type: residual activity (%)
Please respond with the number in % and leave the unit unwritten.

molecule: c1cc(-c2cnn3cc(-c4ccc(OCCN5CCCCC5)cc4)cnc23)ccn1
unit_abbreviation: %
residual activity: 57
--
molecule: CC(C)[C@H](CO)Nc1nc(Nc2cccc(Cl)c2)c2ncn(C(C)C)c2n1
unit_abbreviation: %
residual activity: 73
--
molecule: COC(=O)[C@@]1(O)C[C@H]2O[C@]1(C)n1c3ccccc3c3c4c(c5c6ccccc6n2c5c31)C(=O)NC4
unit_abbreviation: %
residual activity: -1
--
molecule: CCn1cnc2c(Nc3cccc(Cl)c3)nc(N[C@@H]3CCCC[C@@H]3N)nc21
unit_abbreviation: %
residual activity: 89
--
molecule: COc1ccc2c(c1)/C(=C/c1cnc[nH]1)C(=O)N2
unit_abbreviation: %
residual activity: 75

Report residual activity for "O=C1Nc2ccc3ncsc3c2/C1=C/c1c[nH]cn1" tested on Mitogen-activated protein kinase kinase kinase 7 (Homo sapiens). 16

Report residual activity for C[S+]([O-])c1ccc(-c2nc(-c3ccc(F)cc3)c(-c3ccncc3)[nH]2)cc1 (stereo not drawn) tested on Mitogen-activated protein kinase kinase kinase 7 (Homo sapiens). 106

Report residual activity for "O=C1NC(=O)c2c1c1c3ccccc3n3c1c1c2c2ccccc2n1C1CCC3O1" tested on Mitogen-activated protein kinase kinase kinase 7 (Homo sapiens). 88
